- system tested: human CD46 expressed on 293 cells (human) (UniProt P15529)
- protocol text: FACS, 293 cells expressing human CD46, pH 7.4

binder: BAP133-2-03-03-SL (antibody, V domains shown) VH: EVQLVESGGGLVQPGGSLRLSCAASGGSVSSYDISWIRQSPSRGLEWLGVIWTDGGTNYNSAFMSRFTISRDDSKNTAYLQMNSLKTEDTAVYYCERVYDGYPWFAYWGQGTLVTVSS VL: AIQLTQSPSSLSASVGDRVTITCRASQGISNYLNWYLQKPGQSPQLLIYYTSSLHSGVPDRFSGSGSGTDFTLKISRVEAEDVGVYYCQQYIKLPWTFGQGTKVEIK
unit of measurement: µg/mL
EC50: 0.748

Source: patent US20230242662A1
